Tested on: 885724-159-R-J1-PDC KRAS PDC multicell spheroid viability
Assay: Anticancer human tumor 885724-159-R-J1-PDC patient-derived pancreatic adenocarcinoma cell line growth inhibition [KRAS2]
Conditions: second compound 1 µM; first compound 10 µM; hits give low values
metric-name: viability, T/C (%)
Supply the numeric figure in %, leaving out any unit text.

molecule	target-desc	metric-name	display-unit	measured-value
CC1(C)CCC(CN2CCN(c3ccc(C(=O)NS(=O)(=O)c4ccc(NCC5CCOCC5)c([N+](=O)[O-])c4)c(Oc4cnc5[nH]ccc5c4)c3)CC2)=C(c2ccc(Cl)cc2)C1 + C=CC(=O)N1CCN(c2nc(OCC3CCCN3C)nc3c2CCN(c2cccc4cccc(C)c24)C3)CC1CC#N	885724-159-R-J1-PDC KRAS PDC multicell spheroid viability	viability, T/C	%	6.08
COc1cc2nccc(Oc3ccc(NC(=O)C4(C(=O)Nc5ccc(F)cc5)CC4)cc3)c2cc1OC + C=CC(=O)N1CCN(c2nc(=O)n(-c3c(C)ccnc3C(C)C)c3nc(-c4c(O)cccc4F)c(F)cc23)C(C)C1	885724-159-R-J1-PDC KRAS PDC multicell spheroid viability	viability, T/C	%	77.6
CC1(C)CCC(CN2CCN(c3ccc(C(=O)NS(=O)(=O)c4ccc(NCC5CCOCC5)c([N+](=O)[O-])c4)c(Oc4cnc5[nH]ccc5c4)c3)CC2)=C(c2ccc(Cl)cc2)C1 + COc1cc2nc(C)nc(NC(C)c3cc(N)cc(C(F)(F)F)c3)c2cc1OC1CCOC1	885724-159-R-J1-PDC KRAS PDC multicell spheroid viability	viability, T/C	%	28
CC1OCC2(CCN(c3cnc(Sc4ccnc(N)c4Cl)c(N)n3)CC2)C1N (stereo not given) + C=CC(=O)N1CCN(c2nc(OCC3CCCN3C)nc3c2CCN(c2cccc4cccc(C)c24)C3)CC1CC#N	885724-159-R-J1-PDC KRAS PDC multicell spheroid viability	viability, T/C	%	48.6
COc1cc(Nc2ncc3c(n2)-c2ccc(Cl)cc2C(c2c(F)cccc2OC)=NC3)ccc1C(=O)O + C=CC(=O)N1CCN(c2nc(=O)n(-c3c(C)ccnc3C(C)C)c3nc(-c4c(O)cccc4F)c(F)cc23)C(C)C1	885724-159-R-J1-PDC KRAS PDC multicell spheroid viability	viability, T/C	%	99.7
COc1cc2nccc(Oc3ccc(NC(=O)C4(C(=O)Nc5ccc(F)cc5)CC4)cc3)c2cc1OC + CC1OCC2(CCN(c3cnc(Sc4ccnc(N)c4Cl)c(N)n3)CC2)C1N	885724-159-R-J1-PDC KRAS PDC multicell spheroid viability	viability, T/C	%	50.3
Cn1nccc1Nc1nccc(-c2cc3c(s2)C(C)(C)N(CCN2CCOCC2)C3=O)n1 + CC1OCC2(CCN(c3cnc(Sc4ccnc(N)c4Cl)c(N)n3)CC2)C1N	885724-159-R-J1-PDC KRAS PDC multicell spheroid viability	viability, T/C	%	26
O=C(c1cc(Cc2n[nH]c(=O)c3ccccc23)ccc1F)N1CCN(C(=O)C2CC2)CC1 + C=CC(=O)N1CCN(c2nc(=O)n(-c3c(C)ccnc3C(C)C)c3nc(-c4c(O)cccc4F)c(F)cc23)C(C)C1	885724-159-R-J1-PDC KRAS PDC multicell spheroid viability	viability, T/C	%	100
CC1(C)CCC(CN2CCN(c3ccc(C(=O)NS(=O)(=O)c4ccc(NCC5CCOCC5)c([N+](=O)[O-])c4)c(Oc4cnc5[nH]ccc5c4)c3)CC2)=C(c2ccc(Cl)cc2)C1 + CC1OCC2(CCN(c3cnc(Sc4ccnc(N)c4Cl)c(N)n3)CC2)C1N	885724-159-R-J1-PDC KRAS PDC multicell spheroid viability	viability, T/C	%	17.6

Attention now shifts to the item below.
Entry COC(=O)c1ccc2c(C(=Nc3ccc(N(C)C(=O)CN4CCN(C)CC4)cc3)c3ccccc3)c(O)[nH]c2c1 + C=CC(=O)N1CCN(c2nc(OCC3CCCN3C)nc3c2CCN(c2cccc4cccc(C)c24)C3)CC1CC#N , system 885724-159-R-J1-PDC KRAS PDC multicell spheroid viability: what viability, T/C was measured?
0.43

====

Tested on: 885724-159-R-J1-PDC KRAS PDC multicell spheroid viability
Assay: Anticancer human tumor 885724-159-R-J1-PDC cell line growth inhibition [KRAS2];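 further: spheroids exposed to agents for 7 days before readout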
Conditions: second compound 0.316 µM; first compound 0.000316 µM; hits give low values
Could you mark each record Met if its viability, T/C falls strictly under 90%, and Not met if it equals or exceeds it?

Recorded results for 4 compounds are shown here.
compound	class-label
Cn1ncnc1[C@H]1c2n[nH]c(=O)c3cc(F)cc(c23)N[C@@H]1c1ccc(F)cc1 + CC1OCC2(CCN(c3cnc(Sc4ccnc(N)c4Cl)c(N)n3)CC2)C1N	Met
CN(C)C/C=C/C(=O)Nc1cc2c(Nc3ccc(F)c(Cl)c3)ncnc2cc1O[C@H]1CCOC1 + C=CC(=O)N1CCN(c2nc(OCC3CCCN3C)nc3c2CCN(c2cccc4cccc(C)c24)C3)CC1CC#N	Not met
CC(C)n1nc(-c2ccc3oc(N)nc3c2)c2c(N)ncnc21 + CC1OCC2(CCN(c3cnc(Sc4ccnc(N)c4Cl)c(N)n3)CC2)C1N	Met
Cn1ncnc1[C@H]1c2n[nH]c(=O)c3cc(F)cc(c23)N[C@@H]1c1ccc(F)cc1 + COc1cc2nc(C)nc(NC(C)c3cc(N)cc(C(F)(F)F)c3)c2cc1OC1CCOC1	Not met

Consider CC(=O)Nc1cccc(-n2c(=O)n(C3CC3)c(=O)c3c(Nc4ccc(I)cc4F)n(C)c(=O)c(C)c32)c1 + C=CC(=O)N1CCN(c2nc(=O)n(-c3c(C)ccnc3C(C)C)c3nc(-c4c(O)cccc4F)c(F)cc23)C(C)C1 . Does its viability, T/C lie strictly below 90%?
Met

====

Tested on: 885724-159-R-J1-PDC KRAS PDC multicell spheroid viability
Test: Anticancer human tumor 885724-159-R-J1-PDC cell line growth inhibition [KRAS2];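 further: spheroids exposed to agents for 7 days before readout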
Settings: second compound 0.316 µM; first compound 3.16 µM; hits give low values
metric-name: viability, T/C (%)
Supply the numeric figure in %, leaving out any unit text.

Use the examples below as a reference point.
molecule	target-desc	measured-value
CCNC(=O)CC1N=C(c2ccc(Cl)cc2)c2cc(OC)ccc2-n2c(C)nnc21 (stereo not given) + C=CC(=O)N1CCN(c2nc(=O)n(-c3c(C)ccnc3C(C)C)c3nc(-c4c(O)cccc4F)c(F)cc23)C(C)C1	885724-159-R-J1-PDC KRAS PDC multicell spheroid viability	55.3
Cn1nccc1Nc1nccc(-c2cc3c(s2)C(C)(C)N(CCN2CCOCC2)C3=O)n1 + C=CC(=O)N1CCN(c2nc(OCC3CCCN3C)nc3c2CCN(c2cccc4cccc(C)c24)C3)CC1CC#N	885724-159-R-J1-PDC KRAS PDC multicell spheroid viability	31.4
CC(=O)OC12COC1CC(O)C1(C)C(=O)C(O)C3=C(C)C(OC(=O)C(O)C(NC(=O)OC(C)(C)C)c4ccccc4)CC(O)(C(OC(=O)c4ccccc4)C21)C3(C)C (stereo not given) + CC1OCC2(CCN(c3cnc(Sc4ccnc(N)c4Cl)c(N)n3)CC2)C1N	885724-159-R-J1-PDC KRAS PDC multicell spheroid viability	116
COC(=O)c1ccc2c(C(=Nc3ccc(N(C)C(=O)CN4CCN(C)CC4)cc3)c3ccccc3)c(O)[nH]c2c1 + COc1cc2nc(C)nc(NC(C)c3cc(N)cc(C(F)(F)F)c3)c2cc1OC1CCOC1	885724-159-R-J1-PDC KRAS PDC multicell spheroid viability	34.5

Attention now shifts to the item below.
Entry COc1cc(Nc2ncc3c(n2)-c2ccc(Cl)cc2C(c2c(F)cccc2OC)=NC3)ccc1C(=O)O + COc1cc2nc(C)nc(NC(C)c3cc(N)cc(C(F)(F)F)c3)c2cc1OC1CCOC1 , system 885724-159-R-J1-PDC KRAS PDC multicell spheroid viability: what viability, T/C was measured?
102

====

System: 885724-159-R-J1-PDC KRAS PDC multicell spheroid viability
Assay: Anticancer human tumor 885724-159-R-J1-PDC cell line growth inhibition [KRAS2];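 further: spheroids exposed to agents for 7 days before readout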
Settings: second compound 0.0316 µM; first compound 0.00316 µM; hits give low values
metric-name: viability, T/C (%)
Supply the numeric figure in %, leaving out any unit text.

Use the examples below as a reference point.
compound	display-unit	viability, T/C
CCN1CCN(Cc2ccc(Nc3ncc(F)c(-c4cc(F)c5nc(C)n(C(C)C)c5c4)n3)nc2)CC1 + C=CC(=O)N1CCN(c2nc(OCC3CCCN3C)nc3c2CCN(c2cccc4cccc(C)c24)C3)CC1CC#N	%	105
CN(C)C/C=C/C(=O)Nc1cc2c(Nc3ccc(F)c(Cl)c3)ncnc2cc1O[C@H]1CCOC1 + C=CC(=O)N1CCN(c2nc(OCC3CCCN3C)nc3c2CCN(c2cccc4cccc(C)c24)C3)CC1CC#N	%	98.5
CC(=O)Nc1cccc(-n2c(=O)n(C3CC3)c(=O)c3c(Nc4ccc(I)cc4F)n(C)c(=O)c(C)c32)c1 + C=CC(=O)N1CCN(c2nc(OCC3CCCN3C)nc3c2CCN(c2cccc4cccc(C)c24)C3)CC1CC#N	%	38.5
CC(C)n1nc(-c2ccc3oc(N)nc3c2)c2c(N)ncnc21 + C=CC(=O)N1CCN(c2nc(OCC3CCCN3C)nc3c2CCN(c2cccc4cccc(C)c24)C3)CC1CC#N	%	67.8

Attention now shifts to the item below.
Entry Cn1ncnc1[C@H]1c2n[nH]c(=O)c3cc(F)cc(c23)N[C@@H]1c1ccc(F)cc1 + C=CC(=O)N1CCN(c2nc(OCC3CCCN3C)nc3c2CCN(c2cccc4cccc(C)c24)C3)CC1CC#N , system 885724-159-R-J1-PDC KRAS PDC multicell spheroid viability: what viability, T/C was measured?
108
